# System: CHO cells
# EXPERIMENTAL PROTOCOL: Cell membrane permeability in CHO cells
# Format: in vitro ADME, Chinese hamster
# CONDITIONS USED: serum-free medium, normally 20 min
ENDPOINT NAME: cNMP conc. inside CHO cells (% of external) (%)
# number only, unit % dropped from output

Input `O=c1c2nc(Br)n([C@@H]3O[C@@H]4COP(=O)(O)O[C@H]4[C@H]3O)c2nc2[nH]c(-c3ccccc3)cn12` , output reported cNMP conc. inside CHO cells (% of external). 24.1

Give the reported cNMP conc. inside CHO cells (% of external) for this compound. `Nc1ncnc2c1ncn2[C@H]1C[C@@H]2OP(=O)(O)OC[C@H]2O1` 0.1

Provide one value: measured cNMP conc. inside CHO cells (% of external) of `Nc1nc2c(ncn2[C@H]2C[C@@H]3OP(=O)(O)OC[C@H]3O2)c(=O)[nH]1` 0.3

Give me measured cNMP conc. inside CHO cells (% of external), please, for this compound: `Nc1nc2c(nc(Br)n2[C@@H]2O[C@@H]3COP(=O)(O)O[C@H]3[C@H]2O)c(=O)[nH]1` 13.5
